All values here come from patent US20180030151A1.

Target: recombinant human TFPI (tissue factor pathway inhibitor) (human, UniProt P10646 29-304)
Assay: cell-based or functional assay
# A405, TF/FVIIa/FX complex assay (FX 5 nM), Ab 25 nM listing for each entry below
recordedEndpoint: A405, TF/FVIIa/FX complex assay (FX 5 nM), Ab 25 nM

# binder, valueMeasured
rows = [
    ("clone 8 (antibody, V domains shown) VH: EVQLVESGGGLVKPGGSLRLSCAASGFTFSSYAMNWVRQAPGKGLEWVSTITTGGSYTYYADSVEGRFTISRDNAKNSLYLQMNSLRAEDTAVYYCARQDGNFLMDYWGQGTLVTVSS VL: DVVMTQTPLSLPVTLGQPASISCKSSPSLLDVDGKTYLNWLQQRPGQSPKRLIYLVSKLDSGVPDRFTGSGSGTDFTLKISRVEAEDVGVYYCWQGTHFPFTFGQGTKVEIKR", 0.391),
    ("clone 1023 (antibody, V domains shown, scFv on yeast at selection; human IgG4/kappa IgG as purified) VH: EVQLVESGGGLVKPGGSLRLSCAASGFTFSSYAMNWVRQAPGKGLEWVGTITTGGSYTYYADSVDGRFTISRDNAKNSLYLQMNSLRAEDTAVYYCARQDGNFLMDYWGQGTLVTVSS VL: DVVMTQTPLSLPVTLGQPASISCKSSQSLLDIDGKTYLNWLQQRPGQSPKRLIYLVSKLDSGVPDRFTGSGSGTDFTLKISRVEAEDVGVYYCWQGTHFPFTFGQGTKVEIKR", 0.216),
    ("clone 3 (antibody, V domains shown) VH: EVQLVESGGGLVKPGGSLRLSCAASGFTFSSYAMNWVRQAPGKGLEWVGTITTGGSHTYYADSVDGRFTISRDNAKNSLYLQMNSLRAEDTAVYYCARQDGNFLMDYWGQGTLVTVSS VL: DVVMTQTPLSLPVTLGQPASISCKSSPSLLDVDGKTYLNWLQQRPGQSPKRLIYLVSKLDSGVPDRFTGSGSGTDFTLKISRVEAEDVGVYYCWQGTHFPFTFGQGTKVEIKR", 0.527),
    ("clone 2 (antibody, V domains shown) VH: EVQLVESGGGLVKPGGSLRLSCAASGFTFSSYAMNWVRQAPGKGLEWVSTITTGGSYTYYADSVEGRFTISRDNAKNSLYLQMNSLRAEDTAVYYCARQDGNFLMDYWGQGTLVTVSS VL: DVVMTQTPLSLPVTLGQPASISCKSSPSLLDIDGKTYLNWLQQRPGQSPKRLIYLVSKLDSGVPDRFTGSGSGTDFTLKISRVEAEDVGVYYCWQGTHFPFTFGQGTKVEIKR", 0.416),
]
